ASSAY: chemical genetic growth profiling, strain panel (AID 1159580);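 also: tested at 20 µM; growth read once vehicle control cultures reached saturation at 30 °C; 1 = growth at the plate median or of vehicle wells; lower values mean less growth of the strain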
MEASUREMENT PARAMETERS: S. cerevisiae deletion strains, growth OD, locus YDL035C, strain GPR1
In all, about 5,500 compounds went through this assay and about 2,000 (36%) were called active. Not shown: some 18% with an inconclusive outcome. Rule as the data show it: active = normalized growth mostly below about 0.91 (no sharp cut-off); inconclusive = no clear call, values can overlap the other calls; inactive = mostly above about 0.92. Some of the results follow.
Allowed answers: active, inactive

Lab log entry: CC(C)=CC1C(CO)C1(C)C (stereo unspecified) — outcome as called in the assay?
inactive

I'd appreciate the recorded outcome for NC(N)=Nc1ccc(Cl)cc1 from this test.
inactive

Entry C/C=C(/C)C(=O)O[C@@H]1Cc2c(ccc3ccc(=O)oc23)OC1(C)C : call = ?
inactive

State the result this test recorded for C[C@@H]1O[C@@H](O[C@H]2CC[C@]3(C=O)C4CC[C@]5(C)[C@@H](C6=CC(=O)OC6)CC[C@]5(O)C4CC[C@]3(O)C2)[C@H](O)[C@H](O)[C@H]1O (stereo partly specified) .
inactive

How did this test come out for CC(C)(C)NCC(O)COc1cccc2c1C[C@H](O)[C@H](O)C2 (stereo partly specified) ?
inactive

What is the recorded call for this compound in the test? O=C(CCCN1CCC(O)(c2ccc(Cl)cc2)CC1)c1ccc(F)cc1
active

Give the logged outcome of this assay for the following compound: COc1cc(C(=O)N2CCOCC2)cc(OC)c1OC
inactive

Can you look up the reported call for CO[C@H]1[C@H](O)[C@@H](O[C@H]2CC[C@]3(C=O)C4CC[C@]5(C)[C@@H](C6=CC(=O)OC6)CC[C@]5(O)C4CC[C@@H]3C2)O[C@@H](C)[C@@H]1O (stereo partly specified) for me?
inactive

For CC1(C)C(O)CC(=O)C2(C)C1CC(O)C1(C)C2CCC2(C)C(c3ccoc3)OC(=O)C3OC321 (stereo unspecified) , what call appears in the results of this test?
inactive

Identify the outcome logged in this assay for the compound shown: C[C@]12CCC3C(CC[C@]4(O)C[C@@H](O)CC[C@]34C=O)[C@@]1(O)CCC2C1=CC(=O)OC1 (stereo partly specified)
inactive

What was the test verdict on COC(=O)CC1C(C)(C)C(OC(C)=O)[C@@H]2[C@@H](OC(C)=O)[C@]34O[C@@]2(O)[C@]1(C)C3CC[C@]1(C)C4=CC(=O)O[C@H]1c1ccoc1 (stereo partly specified) ?
inactive

Record request — test call for CC1(C)Oc2ccc3ccc(=O)oc3c2CC1O (stereo unspecified)
inactive

Short answer needed: outcome of this test for CC[C@@]1(O)C(=O)OCc2c1cc1n(c2=O)Cc2cc3cc(O)ccc3nc2-1 ?
inactive

Per the records of this test, what outcome belongs to C[C@H]1O[C@@H](O[C@H]2[C@@H](O)C[C@H](O[C@H]3[C@@H](O)C[C@H](O[C@H]4CC[C@]5(C)C6C[C@@H](O)[C@]7(C)[C@@H](C8=CC(=O)OC8)CC[C@]7(O)C6CC[C@@H]5C4)O[C@@H]3C)O[C@@H]2C)C[C@H](O)[C@@H]1O (stereo partly specified) ?
inactive

GET /call?item= C/C=C(\C)C(=O)O[C@@H]1c2c(ccc3ccc(=O)oc23)OC(C)(C)[C@@H]1OC(C)=O returns the recorded outcome of this test.
inactive

How did this test come out for COC1C(O)C(O[C@H]2CC[C@]3(C=O)C4C(CC[C@]3(O)C2)[C@@]2(O)CC[C@H](C3=CC(=O)OC3)[C@@]2(C)C[C@H]4OC(C)=O)OC(C)C1OC(C)=O (stereo partly specified) ?
inactive

* * *

ASSAY: chemical genetic growth profiling, strain panel (AID 1159580);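 also: tested at 20 µM; growth read once vehicle control cultures reached saturation at 30 °C; 1 = growth at the plate median or of vehicle wells; lower values mean less growth of the strain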
MEASUREMENT PARAMETERS: S. cerevisiae deletion strains, growth OD, locus YPL055C, strain LGE1, hits give low values
Hit rate of the full screen: of about 5,500 compounds, about 2,000 (36%) were called active. Roughly 18% stayed inconclusive and do not appear here. The list shows a part of the results.
OBSERVATION TYPE: normalized growth
Lab note: jot the number down without any unit.

Sample CO[C@H]1[C@H](O)[C@@H](O[C@H]2CC[C@]3(C=O)C4CC[C@]5(C)[C@@H](C6=CC(=O)OC6)CC[C@]5(O)C4CC[C@@H]3C2)O[C@@H](C)[C@@H]1O (some centres undefined) ; normalized growth observed: 0.979

C[C@]12CCC3C(CC[C@]4(O)C[C@@H](O)CC[C@]34C=O)[C@@]1(O)CCC2C1=CC(=O)OC1 (some centres undefined) has a reported normalized growth of 1

The molecule listed as COc1c(O)cc2c(c1O)[C@H]1O[C@H](CO)[C@@H](O)[C@H](O)[C@@H]1OC2=O shows normalized growth equal to 0.967

Per the records, this molecule ( CC(=O)OCC(=O)[C@@]1(O)CCC2C3C[C@H](C)C4=CC(=O)C=CC4(C)C3[C@@H](O)CC21C (some centres undefined) ) has normalized growth equal to 0.999

* * *

Assignment: determine reported normalized growth for the given molecules.
ASSAY: chemical genetic growth profiling, strain panel (AID 1159580);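 also: tested at 20 µM; growth read once vehicle control cultures reached saturation at 30 °C; 1 = growth at the plate median or of vehicle wells; lower values mean less growth of the strain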
MEASUREMENT PARAMETERS: S. cerevisiae deletion strains, growth OD, locus YER110C, hits give low values
The campaign covered roughly 5,500 compounds. About 2,000 (36%) were called active. Not shown: some 18% with an inconclusive outcome. The list shows a part of the results.
// keep it numeric: no unit symbol after the value

Lab book: normalized growth of O=C(CCCN1CCC2(CC1)C(=O)NCN2c1ccccc1)c1ccc(F)cc1 noted as 0.99

Lab note: O=C(/C=C(\O)c1ccccc1)c1ccccc1O gave normalized growth of 0.787

What the record says about NC[C@H]1O[C@H](O[C@H]2[C@H](O)[C@@H](O[C@H]3O[C@H](CO)[C@@H](O)[C@H](N)[C@H]3O)[C@H](N)C[C@@H]2N)[C@H](N)[C@@H](O)[C@@H]1O : normalized growth is 0.957

The molecule listed as CC(C)(C)NCC(O)COc1cccc2c1C[C@H](O)[C@H](O)C2 (some centres undefined) has a reported normalized growth of 0.976

The molecule identified as CN(C)C(=O)C(CCN1CCC(O)(c2ccc(Cl)cc2)CC1)(c1ccccc1)c1ccccc1 registered its normalized growth at 1.02

Briefly, normalized growth measured for CCCCC(=O)O[C@]1(C(=O)CO)[C@@H](C)CC2C3CCC4=CC(=O)C=C[C@]4(C)[C@@]3(F)C(O)C[C@@]21C (some centres undefined) : 0.982

Field normalized growth (entry COC(=O)C[C@H]1C(C)(C)[C@@H](O)[C@@H]2CC3=C4CC(O)O[C@@H](c5ccoc5)[C@]4(C)CCC3[C@@]1(C)C2=O (some centres undefined) ) reads 0.98

normalized growth measured on C[C@H]1[C@H](C)CC[C@]2(C(=O)O)CC[C@]3(C)C(=CCC4[C@@]5(C)C[C@@H](O)[C@H](O)[C@@](C)(CO)C5[C@H](O)C[C@]43C)[C@H]12 (some centres undefined) = 0.978

Note to self: normalized growth recorded for NC(=O)c1ccccc1O was 1.01

* * *

ASSAY: chemical genetic growth profiling, strain panel (AID 1159580);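 also: tested at 20 µM; growth read once vehicle control cultures reached saturation at 30 °C; 1 = growth at the plate median or of vehicle wells; lower values mean less growth of the strain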
MEASUREMENT PARAMETERS: S. cerevisiae deletion strains, growth OD, locus YLR320W, strain mms22
Out of some 5,500 compounds screened, about 2,000 (36%) were called active. Inconclusive results (about 18%) are left out. No stated cut-off is given here; in the data, active means normalized growth mostly below about 0.91 (no sharp cut-off); inconclusive means no clear call, values can overlap the other calls; inactive means mostly above about 0.92. The list shows a part of the results.
Returns: one label drawn from active, inactive

What is the recorded call for this molecule in the test? O=C(CCCN1CCC(O)(c2ccc(Cl)cc2)CC1)c1ccc(F)cc1
active

What did this assay record as the result for O=S(=O)(O)O ?
inactive

Could you kindly confirm the outcome this assay logged for CC(C)=CC1C(CO)C1(C)C (centres undefined) ?
inactive

Hi, sorry to bother you, what did the test record for C[C@@H](CO)NC(=O)C1C=C2c3cccc4[nH]cc(c34)C[C@H]2N(C)C1 (some centres undefined) ?
inactive

GET /call?item= CC(=O)OCC(=O)[C@@]1(O)CCC2C3C[C@H](C)C4=CC(=O)C=CC4(C)C3[C@@H](O)CC21C (some centres undefined) returns the recorded outcome of this test.
inactive

Status in this test for NC(=O)c1ccccc1O ?
inactive

Each molecule tested received a call. Report the one for C[C@H]1O[C@H](O[C@H]2[C@H](O)[C@@H](O)[C@@H](O[C@H]3[C@H](O)[C@@H](O)C(O)O[C@@H]3CO)O[C@@H]2CO)[C@H](O)[C@@H](O)[C@@H]1N[C@H]1C=C(CO)[C@@H](O)[C@H](O)[C@H]1O (some centres undefined) .
inactive

Per the records of this test, what outcome belongs to NC[C@H]1O[C@H](OC2[C@@H](N)C[C@@H](N)[C@H](O[C@H]3O[C@H](CO)[C@@H](O)[C@H](N)[C@H]3O)[C@H]2O)[C@H](O)[C@@H](O)[C@@H]1O (some centres undefined) ?
inactive

How did this test come out for C[C@H]1[C@H](C)CC[C@]2(C(=O)O)CC[C@]3(C)C(=CCC4[C@@]5(C)C[C@@H](O)[C@H](O)[C@@](C)(CO)C5CC[C@]43C)[C@H]12 (some centres undefined) ?
inactive

# outcome recorded in this test, key = Cc1ccc(-c2nc3ccc(C)cn3c2CC(=O)N(C)C)cc1
inactive

Could you check what this test reported for CNC[C@H](O)c1cccc(O)c1 ?
inactive

Dear all, I need the recorded test outcome for COC(=O)NC(=S)Nc1ccccc1NC(=S)NC(=O)OC , thank you.
active

Any idea what this test logged for O=C(O)CCc1nc(-c2ccccc2)c(-c2ccccc2)o1 ?
inactive

Given C[C@H]1[C@H](C)CC[C@]2(C(=O)O)CC[C@]3(C)C(=CCC4[C@@]5(C)C[C@@H](O)[C@H](O)[C@@](C)(CO)C5[C@H](O)C[C@]43C)[C@H]12 (some centres undefined) , state the outcome it received in this test.
inactive

Check the results log: what was the call for COc1ccc(-c2cc(=O)c3c(OC)c(OC)c(OC)c(OC)c3o2)cc1OC ?
inactive

Hi, sorry to bother you, what did the test record for COc1cc(O)c2c(=O)cc(-c3ccc(OC)c(-c4c(O)cc(O)c5c(=O)cc(-c6ccc(O)cc6)oc45)c3)oc2c1 ?
inactive

Assay result, entry CC1(C)Oc2ccc3ccc(=O)oc3c2CC1O (centres undefined) — outcome?
inactive

What outcome does the record of this test show for CC(C)C[C@@H](NC(=O)OCC1c2ccccc2-c2ccccc21)C(=O)O ?
inactive

Test call, this molecule: COc1cc2c(cc1OC)-c1c(oc3cc(O)cc(O)c3c1=O)CO2
inactive

Call for entry COC(=O)C(N)CS (centres undefined) :
inactive

Short answer needed: outcome of this test for CC(C)c1cccc(O)c(=O)c1 ?
active

Tell me the recorded outcome of this test for CC1(C)S[C@@H]2[C@H](NC(=O)C(C(=O)O)c3ccccc3)C(=O)N2[C@H]1C(=O)O (some centres undefined) .
inactive

How did this test come out for CO[C@@H]1[C@@H](OC(N)=O)[C@@H](O)[C@H](Oc2ccc3c(O)c(NC(=O)c4ccc(O)c(CC=C(C)C)c4)c(=O)oc3c2C)OC1(C)C ?
inactive

Per the assay record, what outcome was assigned to COc1ccc(-c2cc(=O)c3c(O)cc(O)cc3o2)cc1 ?
inactive

Each molecule tested received a call. Report the one for CN(C)CC[C@H](c1ccc(Cl)cc1)c1ccccn1 .
inactive

# fetch the recorded call for O=C(Oc1cccc2cccnc12)c1ccccc1 here
active

What classification did CC(=O)O[C@@H]1c2c(ccc3ccc(=O)oc23)OC(C)(C)[C@@H]1OC(=O)CC(C)C end up with in this test?
inactive

How did this test come out for CCc1ccc2c(O)c3c(cc2c1C(=O)OC)C(=O)c1c(O)ccc(O)c1C3=O ?
inactive

Recorded test call requested for CCCc1nc(C)c2c(=O)[nH]c(-c3cc(S(=O)(=O)N4CCN(CC)CC4)ccc3OCC)nn12
inactive

In this assay, the call recorded for NC[C@H]1O[C@H](O[C@H]2[C@H](O)[C@@H](O[C@H]3O[C@H](CO)[C@@H](O)[C@H](N)[C@H]3O)[C@H](N)C[C@@H]2N)[C@H](N)[C@@H](O)[C@@H]1O was what?
inactive

Any idea what this test logged for Cc1c(OCC(F)(F)F)ccnc1CS(=O)c1nc2ccccc2[nH]1 (centres undefined) ?
inactive

Lab log entry: CCCCCC(O)C1C(=O)OC(C)C(O)/C=C/C=C/C=C/C=C/C=C(\C)C(O)CC(O)CC(O)CC(O)CC(O)CC(O)CC1O (centres undefined) — outcome as called in the assay?
inactive

Recorded call for CC12CCC(=O)C=C1CCc1ccccc12 (centres undefined) ?
inactive

Which outcome was entered for the molecule CCCc1nn(C)c2c(=O)[nH]c(-c3cc(S(=O)(=O)N4CCN(C)CC4)ccc3OCC)nc12 in this test?
inactive

Hello, I am checking results. What call was entered for COc1ccc(-c2cc(=O)c3c(O)c(OC)c(OC)c(OC)c3o2)cc1OC ?
inactive

Lab log entry: Cc1ncc(CO)c(CO)c1O — outcome as called in the assay?
inactive

# fetch the recorded call for O=C(Oc1ccccc1C(=O)O)c1ccccc1O here
inactive

Please let me know the test result on file for O=C(CCCN1CCN(c2ccccn2)CC1)c1ccc(F)cc1 .
active

Tell me the recorded outcome of this test for COc1cccc2c1CCC1=CC(=O)CC[C@@]12C .
inactive
